Where these numbers come from: PubChem BioAssay (NCI)

Give measured TGI for each item. Keep answers brief.
- System: NCI-H226 lung
- PROTOCOL_DESCRIPTION: NCI tumour cell line growth inhibition, 48 h
Numbers only, in µM.

Example results:
1) C/C(=N\NC(=S)N(C)C)c1nc2ncccc2[nH]1 : 2.05
2) CC(C)(C)[Si](C)(C)OCC1OC(n2cc(I)c(=O)[nH]c2=O)C(O[Si](C)(C)C(C)(C)C)C1O[Si](C)(C)C(C)(C)C (stereo unspecified) : 48

Moving on to another compound below.
If you can, please state the reported TGI value of Cc1nc(-c2nc(-c3ccc(OC(F)(F)F)cc3)no2)nn1Cc1cccc(N2CCC(S(C)(=O)=O)CC2)c1 .
41.4

----------
- System: RPMI-8226 leukemia
- PROTOCOL_DESCRIPTION: NCI tumour cell line growth inhibition, 48 h
ASSAY_READOUT: TGI

1) Nc1nc(Cl)cc(NCC(O)CO)n1 (stereo not given) : > 100 µM

# return TGI for each item in the list
1. CC1CC/C(=C\c2ccc(N(C)C)cc2)C2=C1C(c1ccc(N(C)C)cc1)NC(=S)N2 (stereo not given)
2. CC[C@@H](C(=O)[C@H](C)[C@H](O)[C@@H](C)[C@H]1O[C@H]([C@@H](CC)C(=O)N(CC)CC)CC[C@H]1C)C1O[C@]2(C=C[C@@H](O)[C@]3(CC[C@@](C)([C@H]4CC[C@](O)(CC)[C@H](C)O4)O3)O2)[C@H](C)C[C@@H]1C (stereo not given in full)
3. CC1(Br)CC2OC3(Br)C=CC(C)(O)C2(CC1=O)C3(C)C (stereo not given)
4. CC/C(=C(/c1ccc(O)cc1)c1ccc(OCCN)cc1)c1ccccc1

["> 100 µM", "6.15 µM", "> 100 µM", "5.65 µM"]

----------
- Test system: RPMI-8226 leukemia
- PROTOCOL_DESCRIPTION: NCI tumour cell line growth inhibition, 48 h
What GI50 was measured for each of the following?

1. O=c1[nH]c(=O)c2cc3cc(C4CC(O)C(CO)O4)ccc3cc2[nH]1 (centres undefined) : > 100 µM
2. [Cl][Hg][c]1ccc(Cl)s1 : 2.23 µM
3. CC[C@@H](C(=O)[C@H](C)[C@H](O)[C@@H](C)[C@H]1O[C@H]([C@@H](CC)C(=O)N(CC)CC)CC[C@H]1C)C1O[C@]2(C=C[C@@H](O)[C@]3(CC[C@@](C)([C@H]4CC[C@](O)(CC)[C@H](C)O4)O3)O2)[C@H](C)C[C@@H]1C (some centres undefined) : 2.05 µM

Proceed to the following item.
GI50 lookup needed for CCNC(=O)Nc1ccc(Oc2ccnc3ccc4c(ccn4C)c23)cc1 , thanks.
> 100 µM

----------
Field: GI50. Provide a value for each of the compounds that follow.
- Tested on: MOLT-4 leukemia
- PROTOCOL_DESCRIPTION: NCI tumour cell line growth inhibition, 48 h

1. COc1ccc(Sc2nc3cc(N)cc(N)c3nc2-c2ccccc2)cc1 : 4.19 µM
2. N#C[Se]CCN1C(=O)C2C(C1=O)[C@H]1C=C[C@@H]2S1 (some centres undefined) : 1.31 µM
3. CC/C(=C(/c1ccc(O)cc1)c1ccc(OCCN)cc1)c1ccccc1 : 3 µM

Hi, could you look up GI50 for each item in my list?
1. Cc1ccc2c(c1)c(Sc1ccc(C(=O)NO)cc1)c1n2CN(C)CC1
2. CCN1C(=O)N(CC)C2C1NN=c1s/c(=C\c3ccco3)c(=O)n12 (centres undefined)
3. N#Cc1c(N2CCOCC2)nc(=S)[nH]c1-c1ccccc1

1. 2.05 µM
2. 0.824 µM
3. 10.7 µM

Fill in GI50 for each of the 8 compounds listed.
1. COc1cc(/C(=C2/O[C@@H]([C@H]3COC(C)(C)O3)[C@H]3OC(C)(C)O[C@@H]23)c2ccc3ccccc3c2)cc(OC)c1OC
2. COCCNc1ccc2c3c(cccc13)C(=O)N(CCN(C)C)C2=O
3. NC1CCCCC1N.O=[Se]([O-])[O-].[Pt+4] (centres undefined)
4. Clc1ccc(Nc2ccnc(N3CCN(c4ccnc5cc(Cl)ccc45)CC3)n2)cc1
5. COc1ccc2c(c1)oc(=O)c1cc(OC)ccc12
6. C=C1C(=O)O[C@H]2C[C@@H]1CC/C(C)=C/CC/C(C)=C/CC[C@@]2(C)O
7. COc1cc2ncnc(Nc3cccc(Cl)c3F)c2cc1OC(=O)N1CCN(C)C[C@H]1C
8. CCCCCCn1c(-c2ccc(C(=O)O/N=C(\N)c3ccc4ccccc4c3)cc2)nc(-c2ccccc2)c1-c1ccccc1

> 100 µM
4.98 µM
0.0775 µM
2.94 µM
> 100 µM
24.5 µM
> 46.2 µM
> 100 µM

List reported GI50 for each of these compounds:
1. CC(=O)Nc1c(I)c(NC(C)=O)c(I)c(C(=O)O)c1I
2. N#Cc1c(N)n2c(nc1=Nc1ccc(Cl)cc1)sc1cc(Cl)ccc12

> 100 µM
4.42 µM

For each of the compounds below, note its GI50.
1. Cn1cc(C2=C(c3c4n(c5ccccc35)CCC(CN)C4)C(=O)NC2=O)c2ccccc21 (centres undefined)
2. COc1ccc2c(O)c(/C=C3\N=Nc4ccccc43)oc2c1C[C@@H]1CCNC[C@H]1F
3. Cc1cc(Nc2ncc3c(n2)N(C)C(=O)N(c2cc(NC(=O)c4cccc(C(F)(F)F)c4)ccc2C)C3)n(C)n1

1. 2.19 µM
2. 4.5 µM
3. 0.135 µM
